target: HCV NS3/4A protease complex (BMS strain)
Construct: for H77 and J4L6S; fused on or other part: Probably a three-lysine solubilising tail at the C-terminus of NS4A and a His tag from pET21b (Ni-NTA purification); These are printed for the H77 and J4L6S constructs and only inferred for BMS
assayText: Recombinant HCV NS3/4A protease complex FRET peptide assay (BMS strain)
assayContext: read-out: IC50 (uuM); NS3/4A BMS strain; activity range class
reportedMetric: IC50

compound | reading
C=C[C@@H]1C[C@]1(NC(=O)[C@@H]1C[C@@H](Oc2nccc3cc(OC)ccc23)CN1C(=O)[C@@H](NC(=O)OC(C)(C)C)C(C)(C)C)C(=O)NS(=O)(=O)c1sc(C)nc1C [Compound 1003] | 0.1 to 1 µM
C=C[C@@H]1C[C@]1(NC(=O)[C@@H]1C[C@@H](Oc2nccc3cc(OC)ccc23)CN1C(=O)[C@@H](NC(=O)OC(C)(C)C)C(C)(C)C)C(=O)NS(=O)(=O)c1c(C)nn(C)c1Cl [Compound 1004] | 0.1 to 1 µM
C=C[C@@H]1C[C@]1(NC(=O)[C@@H]1C[C@@H](Oc2nccc3cc(OC)ccc23)CN1C(=O)[C@@H](NC(=O)OC(C)(C)C)C(C)(C)C)C(=O)NS(=O)(=O)c1nnc(NC(C)=O)s1 [Compound 1011] | < 0.1 µM
C=C[C@@H]1C[C@]1(NC(=O)[C@@H]1C[C@@H](Oc2nccc3cc(OC)ccc23)CN1C(=O)[C@@H](NC(=O)OC(C)(C)C)C(C)(C)C)C(=O)NS(=O)(=O)c1cn(C)cn1 [Compound 1005] | 1 to 10 µM
C=C[C@@H]1C[C@]1(NC(=O)[C@@H]1C[C@@H](Oc2nccc3cc(OC)ccc23)CN1C(=O)[C@@H](NC(=O)OC(C)(C)C)C(C)(C)C)C(=O)NS(=O)(=O)c1ccccc1 [Compound 1007] | < 0.1 µM
C=C[C@@H]1C[C@]1(NC(=O)[C@@H]1C[C@@H](Oc2nccc3cc(OC)ccc23)CN1C(=O)[C@@H](NC(=O)OC(C)(C)C)C(C)(C)C)C(=O)NS(=O)(=O)c1c(C)noc1C [Compound 1012] | 1 to 10 µM
C=C[C@@H]1C[C@]1(NC(=O)[C@@H]1C[C@@H](Oc2nccc3cc(OC)ccc23)CN1C(=O)[C@@H](NC(=O)OC(C)(C)C)C(C)(C)C)C(=O)NS(=O)(=O)c1cccs1 [Compound 1006] | < 0.1 µM
C=C[C@@H]1C[C@]1(NC(=O)[C@@H]1C[C@@H](Oc2nccc3cc(OC)ccc23)CN1C(=O)[C@@H](NC(=O)OC(C)(C)C)C(C)(C)C)C(=O)NS(=O)(=O)c1cc(Cl)c(Cl)s1 [Compound 1001] | < 0.1 µM

The measured values listed here are drawn from patent US7309708B2.
